Target of assay: Bek (Homo sapiens, UniProt P21802)
Sequence (P21802 431-767 limits assumed): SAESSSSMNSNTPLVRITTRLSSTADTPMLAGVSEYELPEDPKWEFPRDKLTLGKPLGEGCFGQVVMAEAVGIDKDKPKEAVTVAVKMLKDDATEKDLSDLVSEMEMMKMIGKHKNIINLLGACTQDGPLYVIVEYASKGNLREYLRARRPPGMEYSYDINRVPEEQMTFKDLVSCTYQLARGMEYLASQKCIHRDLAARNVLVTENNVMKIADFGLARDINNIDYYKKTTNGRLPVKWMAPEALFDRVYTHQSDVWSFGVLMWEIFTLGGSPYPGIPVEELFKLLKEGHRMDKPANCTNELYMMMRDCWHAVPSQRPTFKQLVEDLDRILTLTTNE
Assay details: Inhibitory activity against Bek-autophosphorylation using ELISA method in OCUM-2MD3 cells
Experimental context: 1 hr with compound, read-out: IC50 (concentration necessary for inhibiting 50% of Bek-phosphorylation)
Recorded endpoint: IC50 (µM)
Express the result in µM but write the number alone.

Study these solved cases before continuing.
> print(dat)
                                   molecule  recorded.endpoint   value
1  COc1cc2c(Oc3ccc(Nc4ccc(C(C)(C)C)cc4)cc3)ccnc2cc1OCCN1CCCC1 [Compound 39]               IC50    0.57
2  COc1cc2nccc(Oc3ccc(Nc4ccc(N5CCOCC5)cc4)cc3)c2cc1OC [Compound 44]               IC50  0.0765
3  COc1cc2c(Oc3ccc(Nc4ccc(C(C)(C)C)cc4)cc3)ccnc2cc1OCCCN1CC(C)CC(C)C1 (centres unmarked) [Compound 233]               IC50   0.371

Now for a further molecule.
Query block: Please state recorded IC50 (tested on Bek (Homo sapiens, UniProt P21802)) of COc1cc2c(Oc3ccc(Nc4ccc(C(C)(C)C)cc4)cc3)ccnc2cc1OCCN1CCC(N2CCCCC2)CC1 [Compound 242]
Result block: 0.401

====

Below, each entry is listed alongside its reported pIC50.
Target of assay: Bek (Homo sapiens, UniProt P21802)
Assay details: Inhibitory activity against Bek-autophosphorylation using ELISA method in OCUM-2MD3 cells
Experimental context: 1 hr with compound, read-out: IC50 (concentration necessary for inhibiting 50% of Bek-phosphorylation)
pIC50: −log10 of the molar value.

Look over these answered cases.
> print(dat)
                                   compound   value
1  COc1cc2c(Oc3ccc(NC(=O)NCCC(C)(C)C)c(Cl)c3)ccnc2cc1OCCO [Compound 211]  > 8.00
2  COc1cc2c(Oc3ccc(NC(=O)NCCC(C)(C)C)cc3)ccnc2cc1OCCN1CCC(N2CCCC2)CC1 [Compound 124]  > 8.00
3  COc1cc2nccc(Oc3ccc(NC(=O)NC4CCCC(C)(C)C4)cc3)c2cc1OC (stereo not shown) [Compound 108]  > 8.00

Query block: Please look up its pIC50: COc1cc2c(Oc3ccc(NC(=O)NCCC(C)(C)C)cc3)ccnc2cc1OCCNCCO [Compound 372]
Result block: > 8.00

Query block: What pIC50 value was documented for this compound, COc1cc2nccc(Oc3ccc(Nc4ccc(C(C)(C)C)cc4)c(Cl)c3)c2cc1OC [Compound 11] ?
Result block: 6.49

Query block: Entry COc1cc2c(Oc3ccc(Nc4ccc(C(C)(C)C)cc4)cc3Cl)ccnc2cc1OCCN1CCC(CO)CC1 [Compound 308] has what pIC50?
Result block: 6.69

Query block: Look at this compound and give its reported pIC50. COCC(C)NCCOc1cc2nccc(Oc3ccc(Nc4ccc(C(C)(C)C)cc4)cc3)c2cc1OC (stereo not shown) [Compound 363]
Result block: 6.44

====

Target of assay: Bek (Homo sapiens)
Assay details: Inhibitory activity against Bek-autophosphorylation using ELISA method in OCUM-2MD3 cells
Experimental context: 1 hr with compound, read-out: IC50 (concentration necessary for inhibiting 50% of Bek-phosphorylation)
Reported IC50 is given for each of the following compounds.
Phrase the answer as number then unit, nothing more needed.

Record excerpt, results attached:
> print(dat)
                                   compound   value
1  COc1cc2c(Oc3ccc(NC(=O)NCCC(C)(C)C)cc3)ccnc2cc1OCCNC1(CO)CCCC1 [Compound 359]  254 nM
2  CCN(CC)CC(O)COc1cc2nccc(Oc3ccc(Nc4ccc(C(C)(C)C)cc4)cc3)c2cc1OC (stereo not drawn) [Compound 60]  203 nM

Shifting focus to the compound that follows.
Query block: For Bek (Homo sapiens), provide IC50 of COc1cc2nccc(Oc3ccc(NC(=O)NCCC(C)(C)C)c(C)c3)c2cc1OC [Compound 136] please.
Result block: 56.2 nM

This collection of values is drawn from patent US7495104B2.
